Target: Human recombinant Top1 (Homo sapiens, UniProt P11387)
Construct: made in house
Sequence (P11387 1-765): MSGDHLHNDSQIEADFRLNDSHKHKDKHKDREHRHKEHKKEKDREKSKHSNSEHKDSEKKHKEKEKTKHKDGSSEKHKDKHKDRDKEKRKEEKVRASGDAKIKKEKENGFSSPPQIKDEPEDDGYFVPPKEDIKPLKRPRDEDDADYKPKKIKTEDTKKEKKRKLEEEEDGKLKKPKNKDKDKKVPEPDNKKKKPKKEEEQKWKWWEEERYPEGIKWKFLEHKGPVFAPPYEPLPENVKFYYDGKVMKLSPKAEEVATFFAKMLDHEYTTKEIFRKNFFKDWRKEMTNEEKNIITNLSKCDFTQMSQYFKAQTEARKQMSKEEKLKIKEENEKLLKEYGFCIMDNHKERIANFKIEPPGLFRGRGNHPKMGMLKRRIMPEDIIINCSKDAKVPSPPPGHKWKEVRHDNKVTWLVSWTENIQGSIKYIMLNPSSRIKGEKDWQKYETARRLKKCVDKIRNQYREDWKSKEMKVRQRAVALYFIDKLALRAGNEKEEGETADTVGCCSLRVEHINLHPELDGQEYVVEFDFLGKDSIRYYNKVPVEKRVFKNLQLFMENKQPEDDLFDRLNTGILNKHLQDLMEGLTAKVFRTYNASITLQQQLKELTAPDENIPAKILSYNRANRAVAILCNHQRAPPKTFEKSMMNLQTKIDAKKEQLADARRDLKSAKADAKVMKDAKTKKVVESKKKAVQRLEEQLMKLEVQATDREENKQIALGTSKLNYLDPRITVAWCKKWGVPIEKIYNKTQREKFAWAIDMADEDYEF
Assay: Topoisomerase I-mediated DNA cleavage reactions
Type: biochemical
Settings: semi-quantitative scale from 0 to ++++, relative to CPT at 1 μM
testReadout: Top1 inhibitory activity in Top1-mediated DNA cleavage assay

COc1cc2c(OC)nc3c4ccccc4nc(OC)c3c2cc1OC [Compound 34]
loss of activity
COc1cc2c(=O)n(CCCO)c3c4ccccc4[nH]c(=O)c3c2cc1OC [Compound 28]
no detectable inhibition
C=CCn1c(=O)c2cc(OC)c(OC)cc2c2c(=O)[nH]c3ccccc3c21 [Compound 19]
no detectable inhibition
COc1cc2c(Cl)nc3c4ccccc4nc(Cl)c3c2cc1OC [Compound 33]
loss of activity

Values were extracted from patent US9073920B2.
